Test system: L1210 leukemia ip in BDF1 mice, survival T/C
MEASUREMENT_DESCRIPTION: NCI In Vivo Anticancer Drug Screen. Data for tumor model L1210 Leukemia (intraperitoneal) in B6D2F1 (BDF1) mice
CONDITIONS: endpoint: mean survival time; dose: 12.5 mg/kg/injection; schedule: Q04DX003 (ip); vehicle: saline; higher = longer survival
Inconclusive results and toxic doses are left out.
Please go through the items and note down their T/C.

Give T/C (L1210 leukemia ip in BDF1 mice, survival T/C) of the following compound: CC(=O)OCC1OC(O)C(NC(=O)C(F)(F)F)C(OC(C)=O)C1OC(C)=O (centres undefined)
109 % of control

Queued: CN(C)CCCC1c2ccccc2Oc2ccc(C(F)(F)F)cc21 (centres undefined)
102 % of control

Next entry: `CCCCCCCCCCOC(=O)C[n+]1ccc(C(N)=O)cc1`
98 % of control

Now give it for `CC(=O)NN(C)C(C)=O` too.
110 % of control

Another compound: CCC(C)C(CCCCN1CCCC1)(CNC(=O)CN(CC)CC)c1cccc2ccccc12 (centres undefined)
92 % of control

Cool, now `Brc1ccc(C[n+]2ccccc2)cc1`
98 % of control

Another compound to look at: `O=C1C=CC(=C(Br)Br)O1`
97 % of control

Also `SC1(S)CN2CCC1CC2` ?
91 % of control

Record: CC(=O)CC(=O)NCC(CCN(C)C)(c1cccc2ccccc12)C(C)C (centres undefined)
105 % of control

---

System: L1210 leukemia ip in BDF1 mice, survival T/C
MEASUREMENT_DESCRIPTION: NCI In Vivo Anticancer Drug Screen. Data for tumor model L1210 Leukemia (intraperitoneal) in B6D2F1 (BDF1) mice
CONDITIONS: endpoint: mean survival time; dose: 25.0 mg/kg/injection; schedule: Q01DX009 (ip); vehicle: Klucel (hydroxypropylcellulose) (HPC); higher = longer survival
Toxic doses and inconclusive results are not listed.
ASSAY_METRIC: T/C

Quick check: T/C of `CNC(=S)N/N=C(\C)CSC/C(C)=N/NC(=S)NC` ?
109 % of control

Subsequent entry: `CCN(CC)c1ccc(NC(C)=O)cc1`
97 % of control

Further, for `C[C@@H]1C[C@H]2[C@@H]3CCC4=CC(=O)C=C[C@]4(C)[C@@]3(F)[C@@H](O)C[C@]2(C)[C@@]1(O)C(=O)CO` ?
96 % of control

Record: `Cc1ccc2c(Br)cc(Br)c(O)c2n1`
94 % of control

Then this molecule: `CC[P+](CC)(CC)c1ccccc1`
100 % of control

# repeat for `COC(=O)c1ccc(C(=O)CC(=O)c2ccccc2)cc1.COC(=O)c1ccc(C(=O)CC(=O)c2ccccc2)cc1.COC(=O)c1ccc(C(=O)CC(=O)c2ccccc2)cc1.COC(=O)c1ccc(C(=O)CC(=O)c2ccccc2)cc1.COC(=O)c1ccc(C(=O)CC(=O)c2ccccc2)cc1.[Th]`
100 % of control

Please give the result for `Sc1ccccc1Cl` too.
95 % of control

Moving on to OC(/C=C/C(O)c1ccccc1)c1ccccc1 (stereo unspecified)
98 % of control

Now consider FC1(F)SC2CCCCCCC2C1(F)F (stereo unspecified) and answer again.
104 % of control

# repeat for `CC(C)/C=C(\C#N)C(=O)O`
95 % of control

Quick one: Clc1cnc(C(Cl)(Cl)Cl)c(Cl)n1 (tested in a mixture with another compound)
97 % of control

---

System: L1210 leukemia ip in BDF1 mice, survival T/C
MEASUREMENT_DESCRIPTION: NCI In Vivo Anticancer Drug Screen. Data for tumor model L1210 Leukemia (intraperitoneal) in B6D2F1 (BDF1) mice
CONDITIONS: endpoint: mean survival time; dose: 400.0 mg/kg/injection; schedule: Q01DX001 (ip); vehicle: carboxymethylcellulose (CMC); higher = longer survival
Toxic doses and inconclusive results are not listed.
ASSAY_METRIC: T/C

I have this molecule here, `COC1=C(NCc2ccccc2)C(=O)C(OC)=C(NCc2ccccc2)C1=O` , and I need its recorded T/C.
107 % of control

How about `CCCCO[Si](C)(C)CCl` ?
97 % of control

Now consider `COc1c(Br)cc(N=Cc2ccc(N(CCCl)CCCl)cc2C)cc1Br` and answer again.
110 % of control

Same question for `C1CCc2c(sc3c2CCCC3)C1` please.
107 % of control

Now this one: `O=CNn1cn[nH]c1=S`
95 % of control

Next entry: `O=C(O)c1cc(Br)sc1Br`
95 % of control

---

System: L1210 leukemia ip in BDF1 mice, survival T/C
MEASUREMENT_DESCRIPTION: NCI In Vivo Anticancer Drug Screen. Data for tumor model L1210 Leukemia (intraperitoneal) in B6D2F1 (BDF1) mice
CONDITIONS: endpoint: mean survival time; dose: 200.0 mg/kg/injection; schedule: Q04DX003 (ip); vehicle: acetone; higher = longer survival
Toxic doses and inconclusive results are not listed.
ASSAY_METRIC: T/C

Item under review: O=[N+]([O-])c1cc(Cl)ccc1S(=O)(=O)CC(Cl)c1ccccc1 (configuration not stated) . Reported T/C?
100 % of control

Follow-up item: CC1(C)OC2OC(/C=C\C=O)C3OC(C)(C)OC3C2O1 (configuration not stated)
104 % of control

Now give it for CC1=CCC(=O)C2(C)CC(O)C(C(C)C(=O)O)C=C12 (configuration not stated) too.
95 % of control

Now try `COCCOC` .
102 % of control

Okay, and `CCOC(=O)S(=O)(=O)c1ccc(C)cc1` ?
96 % of control

Now consider `CS(=O)(=O)c1ccccc1C(=O)O` and answer again.
103 % of control

Field entry: `OCc1cc2ccccc2cc1F`
87 % of control

---

For each entry below, report its T/C value.
Tested on: L1210 leukemia ip in BDF1 mice, survival T/C
MEASUREMENT_DESCRIPTION: NCI In Vivo Anticancer Drug Screen. Data for tumor model L1210 Leukemia (intraperitoneal) in B6D2F1 (BDF1) mice
CONDITIONS: endpoint: mean survival time; dose: 300.0 mg/kg/injection; schedule: Q01DX001 (ip); vehicle: saline; higher = longer survival
Toxic doses and inconclusive results are not listed.

I have this compound here, CCCCCCC(C)CC(CCCCCC)NCCOC(=O)c1ccc([N+](=O)[O-])cc1 (stereo not given) , and I need its recorded T/C.
121 % of control

Also `Cc1cc2c(cc1C)N(C(=O)CN1CCSCC1)CC(=O)N2` ?
109 % of control

Same thing, different compound: `C[n+]1ccc(C(=O)O)c2ccccc21`
90 % of control

Proceed to CCC1=C(CC2NCCc3ccccc32)CC2c3cc(OC)c(OC)cc3CCN2C1 (stereo not given)
100 % of control

Same question for `COc1cc2c(cc1OC)-c1c([O-])c3cc(OC)c(OC)cc3n[n+]1CC2` please.
89 % of control

---

System: L1210 leukemia ip in BDF1 mice, survival T/C
MEASUREMENT_DESCRIPTION: NCI In Vivo Anticancer Drug Screen. Data for tumor model L1210 Leukemia (intraperitoneal) in B6D2F1 (BDF1) mice
CONDITIONS: endpoint: mean survival time; dose: 100.0 mg/kg/injection; schedule: Q04DX003 (ip); vehicle: Klucel (hydroxypropylcellulose) (HPC); higher = longer survival
Toxic doses and inconclusive results are not listed. Square brackets hold non-standard residues; d marks the D form. Peptide text beside a SMILES is read from it. * marks the point of attachment. ξ: configuration not given here. Cbz = O=C(OCc1ccccc1)*; ξP = O=C(O)C1CCCN1
ASSAY_METRIC: T/C

Form field: T/C recorded for `CCOC(=O)c1cnc(C)nc1Nc1ccccc1` with L1210 leukemia ip in BDF1 mice, survival T/C (enter value)
97 % of control

Try the compound `CCCC1=NNc2n[nH]c(=S)n2N1`
100 % of control

Now the compound O=C(NCC(=O)N1CCCC1C(=O)O)OCc1ccccc1 (stereo not drawn) (Cbz-Gly-[ξP]-OH)
91 % of control

Also need COc1cc2c(cc1OC)C(CNC(=O)/C=C/c1ccccc1)C2 (stereo unspecified) , thanks.
101 % of control

Then this compound: `Cc1ccc(C[As](C)(=O)O)cc1`
97 % of control

What would you report for `CN(C)C(=S)Oc1c(Cl)cc(Cl)cc1S(=O)(=O)F` ?
104 % of control

---

Provide the reported T/C of each item.
System: L1210 leukemia ip in BDF1 mice, survival T/C
MEASUREMENT_DESCRIPTION: NCI In Vivo Anticancer Drug Screen. Data for tumor model L1210 Leukemia (intraperitoneal) in B6D2F1 (BDF1) mice
CONDITIONS: endpoint: mean survival time; dose: 12.5 mg/kg/injection; schedule: Q04DX003 (ip); vehicle: saline with Tween-80; higher = longer survival
Inconclusive results and toxic doses are left out.

Value lookup for T/C; key = `COc1ccc2c[n+](C)c3c4cc(OC)c(OC)cc4ccc3c2c1`
105 % of control

Entry `NC(=O)Cn1cnc2c(=S)nc[nH]c21` please
104 % of control

Try `O=C1C=CC(=C(Br)Br)O1` next.
92 % of control

What about CCCCCCOC(CN)C(Cl)(Cl)Cl (centres undefined) ?
107 % of control
